PARAMETER: melting point

The examples below pair each entry with its known result.
MOLECULE	DATA_VALUE
CC(C)(C)OC(=O)Nc1cc(N2CCSCC2)c(I)cc1N	125 to 127 °C
CCOC(=O)c1cc(C)sc1NN=c1c(C(=O)OCC)c[nH]c2ccccc12	173 to 174 °C
COc1cccc(Nc2ccnc(Nc3cc(OC)c(OC)c(OC)c3)n2)c1	78 °C
O=C(NC(CO)C(=O)c1ccc(Cl)cc1)C1CCN(C(=O)OCc2ccccc2)CC1 (centres undefined)	116 to 118 °C
COC(=O)c1ccc(Cc2cc3cc(Cl)ccc3n2S(=O)(=O)c2ccc(C(C)C)cc2)cc1	99 °C
O=C(O)C1SC(C23CC4CC(CC(C4)C2)C3)=NN1C(=O)CCS (centres undefined)	183 to 184 °C
CCOC(=O)C1(NC(=O)CC)Cc2cccc3c2N(CCC3)C1=O (centres undefined)	136 to 140 °C
CC(C)CCOc1c(Cl)c(Sc2ccccc2N)c(OCCC(C)C)c2c1C(=N)NC2=N	175 to 176 °C
Cc1ccc2c(c1)C(=O)CCC21CCC(=O)NC1=O (centres undefined)	252 to 254 °C
Cc1ccc(Sc2c(Cl)c(Cl)c(C(O)=NCCO)c(C(=O)O)c2Cl)cc1	205 to 209 °C

Give the reported value of melting point for this record: `c1ccc(COc2ccc(-c3nc(COc4ccc(CCCn5ccnc5)cc4)co3)cc2)cc1` 133 to 134 °C

Consider the molecule CC(C)c1cccc(C(C)C)c1-c1cc(OCc2ccccc2)ccc1CC(NC(c1ccccc1)c1ccccc1)C(N)=O (centres undefined) and give its recorded melting point. 148 to 150 °C

Note down melting point recorded for `O=C(c1cc(=O)c2cc(O)ccc2[nH]1)N1CCC(Cc2ccc(Cl)cc2)CC1` 194 °C

For the molecule `Cc1cc(-c2cnn3c(C(F)(F)F)cc(-c4ccc(Cl)c(Cl)c4)nc23)cc(C)n1` , give its reported melting point. 281 °C
